Ref: patent EP0185130A1

- ASSAY_EXPLANATION: Water solubility
- Assay type: physicochemical
- COND: water, bei Siedetemperatur; read-out: Wasserlöslichkeit
For each record, write down the corresponding solubility.
Answers are plain numbers, in mg/mL.

1) CNC(=O)COc1c(I)c(C(=O)NCC(O)CO)c(I)c(C(=O)NCC(O)CO)c1I (stereo not drawn) :: 20
2) CCOCCOCCOc1c(I)c(C(=O)NC(CO)CO)c(I)c(C(=O)NC(CO)CO)c1I :: 1000
3) O=C(COc1c(I)c(C(=O)NCC(O)CO)c(I)c(C(=O)NCC(O)CO)c1I)NCC(O)CO (stereo not drawn) :: 100

State recorded solubility for all listed compounds.
1. O=C(COc1c(I)c(C(=O)NCC(O)CO)c(I)c(C(=O)NCC(O)CO)c1I)NCCO (stereo not drawn)
2. CC(CO)(CO)NC(=O)COc1c(I)c(C(=O)NC(CO)CO)c(I)c(C(=O)NC(CO)CO)c1I
3. CNC(=O)COc1c(I)c(C(=O)NC(CO)CO)c(I)c(C(=O)NC(CO)CO)c1I

Resp:
1: 130; 2: 1000; 3: 100

====

For each record, write down the corresponding solubility.
- ASSAY_EXPLANATION: Water solubility
- Format: physicochemical
- COND: water, no temperature stated; read-out: Wasserlöslichkeit

1. O=C(NC(CO)CO)c1c(I)c(OCC(=O)N(CCO)CC(O)CO)c(I)c(C(=O)NC(CO)CO)c1I (stereo not shown) :: > 1000 mg/mL
2. CCOCCOCCOc1c(I)c(C(=O)NCC(O)CO)c(I)c(C(=O)NC(CO)CO)c1I (stereo not shown) :: > 500 mg/mL
3. CN(C[C@@H](O)[C@H](O)[C@H](O)CO)C(=O)COc1c(I)c(C(=O)NC(CO)CO)c(I)c(C(=O)NC(CO)CO)c1I :: > 1000 mg/mL

Next compound, please.
Field solubility (entry C[C@@H](Oc1c(I)c(C(=O)NC(CO)CO)c(I)c(C(=O)NC(CO)CO)c1I)C(=O)N(CCO)CC(O)CO (stereo partly shown) ) reads > 1000 mg/mL

====

- ASSAY_EXPLANATION: Water solubility
- Assay type: physicochemical
- COND: water, bei 100 °C; read-out: Wasserlöslichkeit
MEASURED_ATTRIBUTE: solubility
Please answer using a numeric value trailed by its unit.

Field solubility (entry C[C@@H](Oc1c(I)c(C(=O)NC(CO)CO)c(I)c(C(=O)NC(CO)CO)c1I)C(=O)NC(CO)(CO)CO [Beispiel 16] ) reads 1000 mg/mL

====

For each record, write down the corresponding solubility.
- ASSAY_EXPLANATION: Water solubility
- Assay type: physicochemical
- COND: water, bei 20 °C; read-out: Wasserlöslichkeit

Use these answered entries as a reference point.
1. CN(C[C@H](O)[C@H](O)CO)C(=O)COc1c(I)c(C(=O)NC(CO)CO)c(I)c(C(=O)NC(CO)CO)c1I :: > 1000 mg/mL
2. CN(C[C@H](O)[C@@H](O)[C@H](O)[C@H](O)CO)C(=O)COc1c(Br)c(C(=O)NCC(O)CO)c(Br)c(C(=O)NCC(O)CO)c1Br (stereo partly drawn) :: > 1000 mg/mL
3. CN(CC(O)CO)C(=O)COc1c(I)c(C(=O)NC(CO)CO)c(I)c(C(=O)NC(CO)CO)c1I (stereo not drawn) :: > 1000 mg/mL
4. CN(C[C@H](O)[C@@H](O)[C@H](O)[C@H](O)CO)C(=O)COc1c(Br)c(C(=O)NC(CO)CO)c(Br)c(C(=O)NC(CO)CO)c1Br :: > 1000 mg/mL

State recorded solubility for all listed molecules.
1. CC(Oc1c(I)c(C(=O)NC(CO)CO)c(I)c(C(=O)NC(CO)CO)c1I)C(=O)N(C)CC(O)CO (stereo not drawn)
2. COCCOCCOCCOCCOCCOCCOCCOc1c(I)c(C(=O)NC(CO)CO)c(I)c(C(=O)NC(CO)CO)c1I
3. O=C(NC(CO)CO)c1c(I)c(OCCCOCCOCCOCCOCCCO)c(I)c(C(=O)NC(CO)CO)c1I
4. O=C(COc1c(Br)c(C(=O)NC(CO)CO)c(Br)c(C(=O)NC(CO)CO)c1Br)NC(CO)CO
5. CC(CO)(CO)NC(=O)COc1c(I)c(C(=O)NC(CO)CO)c(I)c(C(=O)NC(CO)CO)c1I
6. O=C(COc1c(I)c(C(=O)NCC(O)CO)c(I)c(C(=O)NCC(O)CO)c1I)NCC(O)CO (stereo not drawn)
7. CN(CC(O)CO)C(=O)COc1c(I)c(C(=O)NC(C)(CO)CO)c(I)c(C(=O)NC(C)(CO)CO)c1I (stereo not drawn)
8. C[C@@H](Oc1c(I)c(C(=O)NC(CO)CO)c(I)c(C(=O)NC(CO)CO)c1I)C(=O)N(C)CC(O)CO (stereo partly drawn)

Resp:
1. > 1000 mg/mL
2. > 1000 mg/mL
3. > 1000 mg/mL
4. > 1000 mg/mL
5. 16 mg/mL
6. 10 mg/mL
7. ≥ 1000 mg/mL
8. > 1000 mg/mL

State recorded solubility for all listed molecules.
1. CCOCCOCCOc1c(I)c(C(=O)NC(CO)CO)c(I)c(C(=O)NC(CO)CO)c1I
2. CN(C[C@H](O)[C@@H](O)[C@H](O)[C@H](O)CO)C(=O)COc1c(I)c(C(=O)NC(CO)CO)c(I)c(C(=O)NC(CO)CO)c1I

Resp:
60 mg/mL
1000 mg/mL

Field solubility (entry CN(C[C@H](O)[C@@H](O)[C@H](O)[C@H](O)CO)C(=O)COc1c(I)c(C(=O)NCC(O)CO)c(I)c(C(=O)NCC(O)CO)c1I (stereo partly drawn) ) reads > 1000 mg/mL
